Tested on: HIV envelope BRH04820
experiment notes: TOPO cell mediated fusion assay, clinical envelope BRH04820
Assay type: cell-based
condition label: clinical envelope BRH04820, source serum; read-out: BMS-806 EC50 TOPO Fusion
assay readout: pEC50
A value of pEC50 is the negative decimal logarithm of a concentration given in moles per litre.

So what's the measured pEC50 for this one? COc1ccnc2[nH]cc(C(=O)C(=O)N3CCN(C(=O)c4ccccc4)C[C@H]3C)c12 [BMS-806] 8.26

* * *

target under test: HIV LAI envelope (Human immunodeficiency virus type 1 group M subtype B, UniProt P03377)
condition label: read-out: BMS-806 EC50 TOPO Cell Fusion, linear envelope expression element, Hela H1 effector and target cells, luciferase
assay readout: pEC50
Please keep in mind that pEC50 is minus log10 of the molar concentration; only the number is needed.

Which pEC50 value belongs to COc1ccnc2[nH]cc(C(=O)C(=O)N3CCN(C(=O)c4ccccc4)C[C@H]3C)c12 [BMS-806] ? 8.46

* * *

Tested on: HIV 92US072 whole virus
experiment notes: Whole virus assay, 92US072
Type: cell-based
condition label: 92US072, source PBMC; read-out: BMS-806 EC50 Whole Virus
assay readout: pEC50
The meaning of pEC50 here: minus log10 of the concentration in molar units.

Enter reported pEC50 observed with HIV 92US072 whole virus for COc1ccnc2[nH]cc(C(=O)C(=O)N3CCN(C(=O)c4ccccc4)C[C@H]3C)c12 [BMS-806] 6.47
